Target: hCA II (Homo sapiens, UniProt P00918)
Construct: recombinant, in-house
Assay: stopped-flow CO2 hydrase assay
Conditions: read-out: [drawing 1] / 1
Assay Endpoint: Ki (µM)
Give the number; µM is assumed, so skip it.

(Q) What value of Ki has been recorded for this entry: "Cc1cnc(C(=O)O)c[n+]1[O-]"
(A) 7.5

====

Biological target: hCA VB (Homo sapiens, UniProt Q9Y2D0)
Construct: recombinant, in-house
Sequence (Q9Y2D0 34-317): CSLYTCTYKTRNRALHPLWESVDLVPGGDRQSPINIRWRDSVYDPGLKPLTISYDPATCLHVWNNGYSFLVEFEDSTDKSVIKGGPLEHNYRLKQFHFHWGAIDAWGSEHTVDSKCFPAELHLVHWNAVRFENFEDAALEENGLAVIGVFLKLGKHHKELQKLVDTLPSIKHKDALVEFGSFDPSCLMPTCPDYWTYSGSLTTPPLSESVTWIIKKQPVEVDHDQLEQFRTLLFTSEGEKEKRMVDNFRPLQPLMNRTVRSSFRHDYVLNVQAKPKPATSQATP
Experiment: stopped-flow CO2 hydrase assay
Details: read-out: [drawing 1] / 1
Assay Endpoint: Ki (µM)
Give the number; µM is assumed, so skip it.

(Q) What value of Ki has been recorded for this entry: "Cc1cnc(C(=O)O)c[n+]1[O-]"
(A) 2.8

====

Target: hCA VA (Homo sapiens, UniProt P35218)
Construct: recombinant, in-house
Sequence (P35218 39-305): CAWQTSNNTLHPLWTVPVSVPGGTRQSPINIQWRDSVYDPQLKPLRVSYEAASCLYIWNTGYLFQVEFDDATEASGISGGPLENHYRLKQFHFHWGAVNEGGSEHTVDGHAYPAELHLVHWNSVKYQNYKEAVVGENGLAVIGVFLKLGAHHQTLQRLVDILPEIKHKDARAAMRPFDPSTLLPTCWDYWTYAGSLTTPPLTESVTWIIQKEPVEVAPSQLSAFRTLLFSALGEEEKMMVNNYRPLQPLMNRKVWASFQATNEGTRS
Experiment: stopped-flow CO2 hydrase assay
Conditions: read-out: [drawing 1] / 1
Assay Endpoint: pKi
In simple prose, pKi is minus the logarithm base ten of a concentration in moles per litre.

(Q) What value of pKi has been recorded for this entry: "Cc1cnc(C(=O)O)c[n+]1[O-]"
(A) 5.12

====

Biological target: hCA XII (Homo sapiens, UniProt O43570)
Construct: recombinant, in-house
Sequence (O43570 25-354): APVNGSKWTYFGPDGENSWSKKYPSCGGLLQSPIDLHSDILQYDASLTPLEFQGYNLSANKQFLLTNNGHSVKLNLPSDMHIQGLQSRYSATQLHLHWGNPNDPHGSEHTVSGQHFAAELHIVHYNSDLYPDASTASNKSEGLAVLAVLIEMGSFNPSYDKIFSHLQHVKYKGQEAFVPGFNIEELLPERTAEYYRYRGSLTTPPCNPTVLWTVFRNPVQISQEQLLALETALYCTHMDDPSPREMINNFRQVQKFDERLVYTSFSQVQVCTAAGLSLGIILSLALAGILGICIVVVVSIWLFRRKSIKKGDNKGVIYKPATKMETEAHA
Assay: stopped-flow CO2 hydrase assay
Conditions: read-out: [drawing 1] / 1
Assay Endpoint: pKi
In simple prose, pKi is minus the logarithm base ten of a concentration in moles per litre.

(Q) What value of pKi has been recorded for this entry: Cc1cnc(C(=O)O)c[n+]1[O-] [compound 1, Acipimox]
(A) 5.08

====

Biological target: hCA XIV (Homo sapiens)
Construct: recombinant, in-house
Sequence (Q9ULX7 16-290 limits assumed): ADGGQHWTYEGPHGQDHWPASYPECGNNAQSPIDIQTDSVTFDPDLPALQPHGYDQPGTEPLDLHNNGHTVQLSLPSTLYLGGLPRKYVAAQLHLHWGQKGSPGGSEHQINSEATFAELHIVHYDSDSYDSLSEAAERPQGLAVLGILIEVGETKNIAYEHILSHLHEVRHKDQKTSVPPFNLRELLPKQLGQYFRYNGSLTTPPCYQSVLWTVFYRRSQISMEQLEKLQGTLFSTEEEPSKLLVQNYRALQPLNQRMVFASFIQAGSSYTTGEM
Assay: stopped-flow CO2 hydrase assay
Conditions: read-out: [drawing 1] / 1
From the text: stopped-flow CO2 hydrase assay on hCA XIV
Assay Endpoint: Ki
Write down the value, and be sure its unit follows.

(Q) What value of Ki has been recorded for this entry: Cc1cnc(C(=O)O)c[n+]1[O-] [compound 1, Acipimox]
(A) 5.9 µM

====

Biological target: hCA I (Homo sapiens, UniProt P00915)
Construct: recombinant, in-house
Sequence (P00915 2-261): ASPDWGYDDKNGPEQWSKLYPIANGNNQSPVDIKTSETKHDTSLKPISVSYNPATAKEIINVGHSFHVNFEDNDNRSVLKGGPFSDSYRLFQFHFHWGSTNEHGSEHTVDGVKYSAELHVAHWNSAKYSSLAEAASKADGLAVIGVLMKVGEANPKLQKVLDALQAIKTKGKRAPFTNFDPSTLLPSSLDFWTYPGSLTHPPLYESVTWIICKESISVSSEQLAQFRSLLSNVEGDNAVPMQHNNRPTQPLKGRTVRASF
Assay: stopped-flow CO2 hydrase assay
Conditions: read-out: [drawing 1] / 1
Assay Endpoint: pKi
In simple prose, pKi is minus the logarithm base ten of a concentration in moles per litre.

(Q) What value of pKi has been recorded for this entry: "Cc1cnc(C(=O)O)c[n+]1[O-]"
(A) 5.48

====

Target: hCA VI (Homo sapiens)
Construct: recombinant, in-house
Sequence (P23280 18-308): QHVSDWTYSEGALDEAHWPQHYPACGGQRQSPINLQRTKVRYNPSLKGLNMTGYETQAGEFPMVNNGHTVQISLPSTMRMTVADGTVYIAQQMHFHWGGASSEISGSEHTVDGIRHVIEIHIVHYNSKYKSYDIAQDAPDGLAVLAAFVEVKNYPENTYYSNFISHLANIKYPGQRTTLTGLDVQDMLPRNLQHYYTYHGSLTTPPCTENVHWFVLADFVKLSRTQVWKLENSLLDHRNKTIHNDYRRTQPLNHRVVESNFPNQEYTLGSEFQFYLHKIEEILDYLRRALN
Experiment: stopped-flow CO2 hydrase assay
Settings: read-out: [drawing 1] / 1
Assay Endpoint: Ki (µM)
Give the number; µM is assumed, so skip it.

(Q) What value of Ki has been recorded for this entry: Cc1cnc(C(=O)O)c[n+]1[O-] [compound 1, Acipimox]
(A) 7

====

Molecular target: hCA VII (Homo sapiens, UniProt P43166)
Construct: recombinant, in-house
Sequence (P43166 whole entry): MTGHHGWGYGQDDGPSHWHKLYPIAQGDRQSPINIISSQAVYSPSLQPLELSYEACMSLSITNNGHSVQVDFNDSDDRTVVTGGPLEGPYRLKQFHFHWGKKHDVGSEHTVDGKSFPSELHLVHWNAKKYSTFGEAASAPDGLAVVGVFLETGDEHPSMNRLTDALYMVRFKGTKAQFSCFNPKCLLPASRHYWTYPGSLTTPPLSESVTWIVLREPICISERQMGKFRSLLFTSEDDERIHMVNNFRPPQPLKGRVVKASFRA
Assay: stopped-flow CO2 hydrase assay
Conditions: read-out: [drawing 1] / 1
Assay Endpoint: pKi
In simple prose, pKi is minus the logarithm base ten of a concentration in moles per litre.

(Q) What value of pKi has been recorded for this entry: Cc1cnc(C(=O)O)c[n+]1[O-] [compound 1, Acipimox]
(A) 5.04

====

Biological target: hCA XIII (Homo sapiens)
Construct: recombinant, in-house
Sequence (Q8N1Q1 whole entry): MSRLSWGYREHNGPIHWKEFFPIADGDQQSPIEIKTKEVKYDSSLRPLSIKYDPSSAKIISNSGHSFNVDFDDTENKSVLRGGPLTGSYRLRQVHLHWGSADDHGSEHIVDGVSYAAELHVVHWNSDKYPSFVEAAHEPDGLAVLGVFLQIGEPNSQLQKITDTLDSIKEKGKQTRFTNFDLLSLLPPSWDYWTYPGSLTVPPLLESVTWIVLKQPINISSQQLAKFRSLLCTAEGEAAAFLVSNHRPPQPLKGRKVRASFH
Assay: stopped-flow CO2 hydrase assay
Conditions: read-out: [drawing 1] / 1
Assay Endpoint: pKi
In simple prose, pKi is minus the logarithm base ten of a concentration in moles per litre.

(Q) What value of pKi has been recorded for this entry: "Cc1cnc(C(=O)O)c[n+]1[O-]"
(A) 4.06
